System: DMS-114
method: NCI tumour cell line growth inhibition, 48 h
The source made the active and inactive calls. Cut-off read from the data, not from the text of the source: active = GI50 up to about 1.1 µM and inactive = higher.
assay_endpoint: GI50

These recorded examples may help you get a feel for the data.
COc1ccc(NC(=O)C(=O)C2CNC(=O)NC2=O)c(OC)c1 (stereo not given) : > 100 µM (inactive)
O=C(O)c1ccc(/N=N/c2cc(S(=O)(=O)O)c3cccnc3c2O)cc1 : > 100 µM (inactive)
O=C1/C(=C\c2ccccc2)CN(C(=O)CCN2CCCCC2)C/C1=C/c1ccccc1 : 1.23 µM (inactive)
CCOC(=O)NC(=O)c1cn(CCN2CCN(C(=O)NCCCCCCNC(=O)N3CCN(CCn4cc(C(=O)NC(=O)OCC)c(=O)n(CCN(CC)CC)c4=O)CC3)CC2)c(=O)n(CCC(CC)CC)c1=O : > 100 µM (inactive)
CCOC(=O)N[C@H]1CCc2cc(O)c(OC)c(OC)c2-c2ccc(SC)c(=O)cc21 : 0.0193 µM (active)

For the compound shown here, `CN(C)c1snc2c1c(=O)n(C)c(=O)n2C` , give the reported GI50.
> 100 µM (inactive)

---

Tested on: HT-29
method: NCI tumour cell line growth inhibition, 48 h
Activity calls are given as the source filed them. Cut-off read from the data, not from the text of the source: active = GI50 up to about 1.1 µM and inactive = higher.
Your answer must be one of the following: active, inactive

COc1ccc(C2C(Cl)C(=O)N2NC(=O)c2ccc(N)cc2)cc1OC (stereo unspecified) : inactive
COc1nc2ccc(Cl)c(C(O)c3ccccc3)c2nc1OC (stereo unspecified) : inactive
O=C(c1ccccc1)c1ccc2c(c1)N=C(c1ccc(Cl)c(Cl)c1)CC(c1ccc3ccccc3c1)N2 (stereo unspecified) : inactive
O=C1NC(=S)NC(=O)C1=C(O)Nc1ccccc1 : inactive
CC1=C(C(=O)Nc2c(C)cccc2C)C(c2ccccc2Cl)C(C(=O)Nc2c(C)cccc2C)=C(C)N1 : inactive
C[C@]12CC[C@@H]3c4cc(C=O)c(OCc5ccccc5)cc4CC[C@H]3[C@@H]1CCC2OCc1ccccc1 (stereo partly specified) : inactive
CC1=C(C#N)C23C(=O)c4ccccc4C(=O)C2=C(O)C=CC3(O)N1 (stereo unspecified) : inactive
COC(=O)C(C)Sc1nc2cc(Cl)ccc2s1 (stereo unspecified) : inactive

What was the test verdict on O=C(O)CC1OCC=C2C[N+]3([O-])CCC45c6ccccc6NC4C1C2CC53 (stereo unspecified) ?
inactive

Consider next the molecule COc1cc2c(cc1OC)[C@@](C)(C(O)C(O)C(C)(C)O)NCC2 (stereo partly specified) in the same way.
inactive

# repeat for O=C(CC(C(=O)c1ccc(F)cc1)c1ccsc1)c1cccs1 (stereo unspecified)
inactive

Also, `CCN(CC)CCCNc1nncc2c(C)c3[nH]c4ccc(OC)cc4c3cc12` please.
active

Do the same for CCC(NC1=NCCO1)c1cccs1 (stereo unspecified) please
inactive

Now try CCC(C(=O)O)c1ccc(OCc2ccccc2)cc1 (stereo unspecified) .
inactive

---

Test system: UACC-257
method: NCI tumour cell line growth inhibition, 48 h
Active and inactive are the calls of the source. Rule as the data show it: active = GI50 up to about 1.1 µM and inactive = higher.
assay_endpoint: GI50

// worked examples, GI50 included
COc1cc2c(cc1C)NC(=O)/C2=C\c1cccnc1 : 13.1 µM (inactive)
COc1cc2c3cc1Oc1c(O)c(OC)cc4c1[C@H](Cc1ccc(cc1)Oc1cc(ccc1O)C[C@H]3N(C)CC2)N(C)CC4 : 15 µM (inactive)

Here is another compound to look at.
Please give the measured GI50 for this compound: `CN(C)c1ccc(/C=C2\N=C(N/N=C/c3ccccc3)NC2=O)cc1`
> 100 µM (inactive)
